Hey, just so you know, these numbers are from paper PMC9866588.

Test system: CCRF-CEM (human acute lymphoblastic leukemia) cells
Assay: MTT antiproliferative assay, CCRF-CEM
Format: cell-based
Settings: Homo sapiens, CCRF-CEM; 72 h, MTT, mean ± SD of three independent experiments
Procedure: The growth inhibition activity was assessed according to the slightly modified procedure performed at the National Cancer Institute, Developmental Therapeutics Program. The examined compounds were dissolved in DMSO (1 × 10^−2 M). The experiments were carried out on seven human tumor cell lines and a normal cell line. […] The percentage of live cells was calculated as follows: % = OD (sample) − OD (background)/OD (control) − OD (background) × 100. […]
Outcome Measure: GI50

Example results:
O=c1[nH]cc(F)c(=O)[nH]1 [Compound 5-FU, 5-Fluorouracil, reference compound]
> 50 µM
Clc1ccc2c(Nc3cccc(-c4nc5cc(C6=NCCN6)ccc5[nH]4)c3)ccnc2c1
> 100 µM
N=C(N)c1ccc2[nH]c(-c3cccc(Nc4ccnc5cc(Cl)ccc45)c3)nc2c1
> 100 µM

// below: GI50 requested for another compound
Fill in GI50 for record `CC(C)NC(=N)c1ccc2[nH]c(-c3cccc(Nc4ccnc5cc(Cl)ccc45)c3)nc2c1`
> 100 µM
